- Test system: Cyno in house BCMA
- Sequence (as listed by the source): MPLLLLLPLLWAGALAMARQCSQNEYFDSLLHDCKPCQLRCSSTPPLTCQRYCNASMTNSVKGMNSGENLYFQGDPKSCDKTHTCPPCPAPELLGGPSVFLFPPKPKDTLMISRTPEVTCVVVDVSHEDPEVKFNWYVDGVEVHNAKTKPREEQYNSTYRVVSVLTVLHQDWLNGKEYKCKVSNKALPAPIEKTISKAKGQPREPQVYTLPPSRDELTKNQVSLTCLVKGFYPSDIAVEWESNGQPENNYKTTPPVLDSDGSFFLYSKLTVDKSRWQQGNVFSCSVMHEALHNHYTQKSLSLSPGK
- Measurement description: ProteOn analysis of CA8 chimeric and humanised constructs, cyno in house BCMA
- Assay type: binding
- Condition: Run 1, Cyno in house BCMA, 25° C., in M-1s-1 (unit assumed)
The following molecules are listed with their measured ka values.
Value kind: ka

Molecule: CA8 humanised J2M2: humanised CA8 anti-BCMA antibody, VH J2 (SEQ ID NO:15) + VL M2 (SEQ ID NO:35) (antibody, V domains shown, Humansed antibody sequence) VH: QVQLVQSGAEVKKPGSSVKVSCKASGYTFTNYWMHWVRQAPGQGLEWMGATYRGHSDTYYNQKFKGRVTITADKSTSTAYMELSSLRSEDTAVYYCTRGAIYNGYDVLDNWGQGTLVTVSS VL: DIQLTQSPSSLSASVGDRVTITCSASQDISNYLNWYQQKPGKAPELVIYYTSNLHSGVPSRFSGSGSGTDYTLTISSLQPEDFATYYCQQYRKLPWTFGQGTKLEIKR
Reported: 2.98E+05
--
Molecule: CA8 humanised J4M2: humanised CA8 anti-BCMA antibody, VH J4 (SEQ ID NO:19) + VL M2 (SEQ ID NO:35) (antibody, V domains shown, Humansed antibody sequence) VH: QVQLVQSGAEVKKPGSSVKVSCKGSGYTFTNYWMHWVRQAPGQGLEWIGATYRGHSDTYYNQKFKGRATLTADTSTSTAYMELSSLRSEDTAVYYCTRGAIYNGYDVLDNWGQGTLVTVSS VL: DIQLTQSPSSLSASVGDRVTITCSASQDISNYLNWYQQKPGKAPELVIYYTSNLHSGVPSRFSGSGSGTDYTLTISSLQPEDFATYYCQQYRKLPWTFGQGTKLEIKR
Reported: 3.44E+05
--
Molecule: CA8 humanised J0M2: humanised CA8 anti-BCMA antibody, VH J0 (SEQ ID NO:11) + VL M2 (SEQ ID NO:35) (antibody, V domains shown, Humansed antibody sequence) VH: QVQLVQSGAEVKKPGSSVKVSCKASGGTFSNYWMHWVRQAPGQGLEWMGATYRGHSDTYYNQKFKGRVTITADKSTSTAYMELSSLRSEDTAVYYCARGAIYNGYDVLDNWGQGTLVTVSS VL: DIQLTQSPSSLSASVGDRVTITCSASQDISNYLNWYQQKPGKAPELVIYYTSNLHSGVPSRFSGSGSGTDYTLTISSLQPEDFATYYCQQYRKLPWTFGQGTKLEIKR
Reported: 3.26E+05
--
Molecule: CA8 humanised J5M2: humanised CA8 anti-BCMA antibody, VH J5 (SEQ ID NO:21) + VL M2 (SEQ ID NO:35) (antibody, V domains shown, Humansed antibody sequence) VH: QVQLVQSGAEVKKPGSSVKVSCKGSGYTFTNYWMHWVRQAPGQGLEWMGATYRGHSDTYYNQKFKGRVTITADTSTSTAYMELSSLRSEDTAVYYCTRGAIYDGYDVLDNWGQGTLVTVSS VL: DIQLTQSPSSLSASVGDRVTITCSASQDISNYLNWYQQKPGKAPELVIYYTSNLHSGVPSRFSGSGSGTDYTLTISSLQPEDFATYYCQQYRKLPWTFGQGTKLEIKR
Reported: 4.30E+05
--
Molecule: CA8 humanised J3M1: humanised CA8 anti-BCMA antibody, VH J3 (SEQ ID NO:17) + VL M1 (SEQ ID NO:33) (antibody, V domains shown, Humansed antibody sequence) VH: QVQLVQSGAEVKKPGSSVKVSCKGSGYTFTNYWMHWVRQAPGQGLEWMGATYRGHSDTYYNQKFKGRVTITADTSTSTAYMELSSLRSEDTAVYYCTRGAIYNGYDVLDNWGQGTLVTVSS VL: DIQMTQSPSSLSASVGDRVTITCSASQDISNYLNWYQQKPGKAPKLLIYYTSNLHSGVPSRFSGSGSGTDYTLTISSLQPEDFATYYCQQYRKLPWTFGQGTKLEIKR
Reported: 4.04E+05
--
Molecule: CA8 humanised J4M1: humanised CA8 anti-BCMA antibody, VH J4 (SEQ ID NO:19) + VL M1 (SEQ ID NO:33) (antibody, V domains shown, Humansed antibody sequence) VH: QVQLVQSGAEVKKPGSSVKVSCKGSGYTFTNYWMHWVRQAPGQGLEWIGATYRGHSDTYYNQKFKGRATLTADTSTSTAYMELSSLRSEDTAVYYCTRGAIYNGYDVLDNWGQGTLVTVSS VL: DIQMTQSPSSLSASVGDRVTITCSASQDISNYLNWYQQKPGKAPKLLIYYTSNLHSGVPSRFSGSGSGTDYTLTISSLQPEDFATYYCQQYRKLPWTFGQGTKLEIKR
Reported: 3.50E+05
--
Molecule: CA8 humanised J3M2: humanised CA8 anti-BCMA antibody, VH J3 (SEQ ID NO:17) + VL M2 (SEQ ID NO:35) (antibody, V domains shown, Humansed antibody sequence) VH: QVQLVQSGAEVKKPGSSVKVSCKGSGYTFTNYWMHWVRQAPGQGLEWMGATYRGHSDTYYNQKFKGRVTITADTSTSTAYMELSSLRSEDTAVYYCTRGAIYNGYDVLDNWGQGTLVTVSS VL: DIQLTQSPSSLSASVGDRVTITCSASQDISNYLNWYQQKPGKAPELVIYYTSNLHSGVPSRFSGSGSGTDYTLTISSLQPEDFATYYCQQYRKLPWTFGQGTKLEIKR
Reported: 3.69E+05
